Molecular target: NR1-3/NR2A NMDA receptor (Homo sapiens, UniProt Q05586+Q12879)
Construct: expressed in transfected cells
Sequence (Q12879 23-1464, other chains not shown): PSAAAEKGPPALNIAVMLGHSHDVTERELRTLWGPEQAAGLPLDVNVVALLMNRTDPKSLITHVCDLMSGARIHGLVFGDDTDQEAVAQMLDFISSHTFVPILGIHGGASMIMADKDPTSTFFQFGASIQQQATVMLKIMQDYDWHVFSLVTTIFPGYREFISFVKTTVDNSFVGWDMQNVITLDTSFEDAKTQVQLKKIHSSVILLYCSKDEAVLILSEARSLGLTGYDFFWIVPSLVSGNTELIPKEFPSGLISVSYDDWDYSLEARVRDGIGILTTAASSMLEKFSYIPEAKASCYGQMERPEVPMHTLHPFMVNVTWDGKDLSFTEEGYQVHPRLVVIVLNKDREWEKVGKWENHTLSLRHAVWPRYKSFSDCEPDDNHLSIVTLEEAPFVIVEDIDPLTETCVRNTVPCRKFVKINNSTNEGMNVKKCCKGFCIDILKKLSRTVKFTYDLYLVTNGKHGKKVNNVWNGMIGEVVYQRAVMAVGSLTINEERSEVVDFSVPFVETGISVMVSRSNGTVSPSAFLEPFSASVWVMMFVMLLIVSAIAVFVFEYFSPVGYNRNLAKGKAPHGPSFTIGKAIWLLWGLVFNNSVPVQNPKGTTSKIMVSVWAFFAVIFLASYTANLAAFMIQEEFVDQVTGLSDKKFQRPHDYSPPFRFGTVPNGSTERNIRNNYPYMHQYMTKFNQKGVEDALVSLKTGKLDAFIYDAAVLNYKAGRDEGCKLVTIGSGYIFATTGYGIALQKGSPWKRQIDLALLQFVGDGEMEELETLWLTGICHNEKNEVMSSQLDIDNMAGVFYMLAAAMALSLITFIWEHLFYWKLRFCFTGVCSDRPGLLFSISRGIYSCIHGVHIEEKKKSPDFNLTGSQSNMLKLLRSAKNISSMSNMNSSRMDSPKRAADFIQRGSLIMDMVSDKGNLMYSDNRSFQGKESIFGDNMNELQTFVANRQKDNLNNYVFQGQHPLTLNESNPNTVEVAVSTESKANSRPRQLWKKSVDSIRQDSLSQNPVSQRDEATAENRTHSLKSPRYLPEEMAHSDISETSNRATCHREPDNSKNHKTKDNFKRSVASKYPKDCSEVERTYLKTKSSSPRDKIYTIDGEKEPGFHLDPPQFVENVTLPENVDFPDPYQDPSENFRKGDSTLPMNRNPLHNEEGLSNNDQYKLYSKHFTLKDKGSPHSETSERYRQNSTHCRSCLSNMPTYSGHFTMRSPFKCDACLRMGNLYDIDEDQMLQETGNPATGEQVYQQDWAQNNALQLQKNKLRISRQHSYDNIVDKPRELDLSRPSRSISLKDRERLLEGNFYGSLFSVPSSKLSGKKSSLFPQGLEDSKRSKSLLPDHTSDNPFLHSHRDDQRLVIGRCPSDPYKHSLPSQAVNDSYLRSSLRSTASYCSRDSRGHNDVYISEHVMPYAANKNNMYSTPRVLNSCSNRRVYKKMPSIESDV
Experiment: Functional NMDA antagonism, fluorimetric intracellular calcium measurement on HEK293 cells expressing NR1-3/NR2A
Format: cell-based
Details: 10 μM, reference compounds

{"columns": ["COMPOUND", "SYSTEM", "inhibition at 10 µM (%)"],
 "data": [
  ["Cc1ccc(CC2(O)CCN(CCOc3ccc(O)cc3)CC2)cc1 [Co-101244, reference compound]", "NR1-3/NR2A NMDA receptor (Homo sapiens, UniProt Q05586+Q12879)", -8.7],
  ["CC(CN1CCC(Cc2ccccc2)CC1)C(O)c1ccc(O)cc1 (centres unmarked) [Ro 25.6981, reference compound]", "NR1-3/NR2A NMDA receptor (Homo sapiens, UniProt Q05586+Q12879)", 1],
  ["CC(C(O)c1ccc(O)cc1)N1CCC(Cc2ccccc2)CC1 (centres unmarked) [ifenprodil, reference compound]", "NR1-3/NR2A NMDA receptor (Homo sapiens, UniProt Q05586+Q12879)", -2.7],
  ["O=c1[nH]c2ccc([S+]([O-])CCN3CCC(Cc4ccc(F)cc4)CC3)cc2o1 (centres unmarked) [CI-1041, reference compound]", "NR1-3/NR2A NMDA receptor (Homo sapiens, UniProt Q05586+Q12879)", 21],
  ["C[C@@H]([C@@H](O)c1ccc(O)cc1)N1CCC(O)(c2ccccc2)CC1 [CP 101,606, reference compound]", "NR1-3/NR2A NMDA receptor (Homo sapiens, UniProt Q05586+Q12879)", 2.5]
]}
